Provenance of the data: patent US12479834B2

Target: G12C K-Ras4B (1-169) (Homo sapiens, UniProt P01116, G12C)
Construct: G12C K-Ras4B (1-169) protein, which was a KRAS G12C mutant; His tag (N, cleaved yes); made in house; host or cells: E. coli BL21 (DE3)
Assay: Binding to KRAS G12C mutant, compound binding rate by LC-MS
Settings: final compound concentration 2 μM, 1 μM protein, 2 hours at 25° C.
endpoint-label: binding rate for G12C K-Ras4B (1-169)

Take a look at these entries with their results.
- compound: "C=CC(=O)N1CC(NC(=O)c2cnc(CNc3cc(C(C)(C)C)c(Cl)cc3O)s2)C1 [Example 9]"
  binding rate for G12C K-Ras4B (1-169): "A (80% or more)"
- compound: "C=CC(=O)N1CC(NC(=O)c2c(C)nc(CNc3cc(C(C)(C)C)c(Cl)cc3O)n2Cc2cccnc2)C1 [Example 46]"
  binding rate for G12C K-Ras4B (1-169): "A (80% or more)"
- compound: "C=CC(=O)N1CC(N(C)C(=O)c2coc(CNc3cc(C(C)(C)C)c(Cl)cc3O)c2)C1 [Example 33]"
  binding rate for G12C K-Ras4B (1-169): "E (less than 20%)"
- compound: "C=CC(=O)N1CC(N(C)C(=O)c2ccc(CNc3cc(OC(F)(F)F)c(Cl)cc3O)o2)C1 [Example 49]"
  binding rate for G12C K-Ras4B (1-169): "E (less than 20%)"

Shifting focus to the compound that follows.
Tell me reported binding rate for G12C K-Ras4B (1-169) for C=CC(=O)N1CC(NC(=O)c2cnc(CNc3cc(C(C)(C)C)c(Cl)cc3O)n2CCN(C)C)C1 [Example 38] , tested with G12C K-Ras4B (1-169) (Homo sapiens, UniProt P01116, G12C).
A (80% or more)
